Entries and their measured %Inh follow.
System: BMX
Conditions: concentration: 1 μM, replicates: in singlicate; n = 1;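 note: KINOMEscan kinase panel screen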
Property Measured: %Inh (%)

>>> result_value("COc1cccc(C2=C(Nc3ccc(Cl)c(C(=O)O)c3)C(=O)NC2=O)c1 [SB-390769]")
0
>>> result_value("CNC(=O)c1ccccc1Nc1nc(Nc2ccc(N3CCOCC3)cc2)ncc1Cl.Cl [GSK1576028]")
91.4
>>> result_value("CCS(=O)(=O)c1ccc(OC)c(Nc2nccc(-c3c(-c4cccc(NC(=O)c5c(F)cccc5F)c4)nn4ncccc34)n2)c1 [GSK326180]")
0
>>> result_value("Nc1ncc(-c2cccnc2)c2scc(-c3ccc4c(c3)CCN4C(=O)Cc3ccccc3)c12 [GSK683281]")
20
>>> result_value("Oc1cc(Nc2ccnc3cc(I)ccc23)ccc1F [GW552771]")
15
>>> result_value("COc1cc(Nc2nccc(-c3c(-c4cccc(NC(=O)c5c(F)cccc5F)c4)nn4ncccc34)n2)cc(OC)c1OC [GSK327238]")
91.4
>>> result_value("COC(=O)Nc1nc2cc(Oc3ccc(NC(=O)Nc4cc(C(F)(F)F)ccc4F)cn3)ccc2[nH]1.Cl.Cl [GW681170]")
5
>>> result_value("COc1cc(Nc2nccc(N3CCC(NC(=O)Nc4cccc(C(C)=O)c4)C3)n2)cc(OC)c1OC (centres unmarked) [GSK1379753]")
1
>>> result_value("COc1cccc(-c2ccc3c(NC(=O)C4CC4)n[nH]c3n2)c1 [SB-710903]")
0
>>> result_value("Cc1ccc(C(=O)Nc2ccc(Nc3ccnc4cc(-c5nccs5)ccc34)cc2O)cc1.Cl [GW494702]")
18
>>> result_value("COc1ccc(CNC(=O)NC2CCN(c3ccnc(Nc4ccc(F)cc4)n3)CC2)cc1 [GSK1379788]")
3
>>> result_value("COCCOCCOc1cc2ncc3c4ccc(C#N)cc4[nH]c3c2cc1OC")
35
>>> result_value("CN(c1ccc(NC(=O)Nc2cc(C(F)(F)F)ccc2F)cc1)c1ccnc(Nc2ccc(S(N)(=O)=O)cc2)n1 [GW809893]")
71
>>> result_value("CC(C)(C)c1ccc2nccc(Nc3cccc(O)c3)c2c1 [GW856795]")
0
>>> result_value("O=C(Nc1cccc(-c2nn3ccccc3c2-c2ccnc(Nc3cccc(F)c3)n2)c1)c1c(F)ccc(F)c1Cl [GSK357952]")
63
>>> result_value("C[C@@H]1CC[C@@H](C(=O)Nc2ccccc2)CN1c1cc(-c2ccc3c(N)n[nH]c3c2)nc(N)n1 [GSK2286062]")
24
>>> result_value("Cn1cc(-c2[nH]c3cc(NC(=O)[C@H](N)C4CCCCC4)cc4c3c2C=NNC4=O)cn1")
13

====

Test system: SLK
Settings: concentration: 1 μM, replicates: in singlicate; n = 1
Property Measured: %Inh (%)

>>> result_value("COc1cccc(C(=O)Nc2cccc(Oc3ccc4nc(NC(=O)C5CC5)cn4n3)c2)c1")
49
>>> result_value("COc1cc(Nc2nccc(N3CCC(NC(=O)c4cc5ccccc5s4)C3)n2)cc(OC)c1OC (centres unmarked)")
76
>>> result_value("Cc1ccc(C(=O)Nc2ccc(Nc3ccnc4cc(-c5nccs5)ccc34)cc2O)cc1.Cl")
30
>>> result_value("C[C@@H]1CC[C@@H](C(=O)Nc2ccccc2)CN1c1cc(-c2ccc3c(N)n[nH]c3c2)nc(N)n1")
1
>>> result_value("c1ccc(-c2cnc3nccnn23)cc1")
11

Numbers sourced from paper PMC5540273.
